species: Rattus norvegicus; experiment: Compound was tested for electrophysiological experiments using rat cortical wedge preparation; format: functional
MEASURED METRIC: EC50 (µM)
Answer with a number only, understood to be in µM.

Example compounds with recorded EC50:
• CCCCc1c(O)noc1CC(N)C(=O)O (configuration not stated) = 37
• N[C@@H](Cc1onc(O)c1Br)C(=O)O = 21
• NC(Cc1onc(O)c1Br)C(=O)O (configuration not stated) = 23
• N[C@@H](Cn1oc(=O)[nH]c1=O)C(=O)O [QUISQUALATE] = 7.3

Ask: State its EC50: CCCCc1c(O)noc1C[C@H](N)C(=O)O
Result: 17

Taken from ChEMBL document CHEMBL1131496.
